Provenance of the data: ChEMBL document CHEMBL4196162

- assay_overview: Inhibition of recombinant human lung beta-tryptase using N-tert-butoxycarbonyl-Gln-Ala-Arg-AMC as substrate incubated for 3 hrs followed by substrate addition measured every 30 secs for 15 mins in presence of 10 pM of tryptase
observed_property: IC50 (nM)
The reply should contain only the number, in nM.

Noted for NCc1cccc(C2CCN(C(=O)c3cccc(NC(=O)C(O)C4(O)CCC4)c3)CC2)c1 (stereo unspecified) : its IC50 reads 640

----------
- assay_overview: Inhibition of recombinant human lung beta-tryptase using N-tert-butoxycarbonyl-Gln-Ala-Arg-AMC as substrate incubated for 3 hrs followed by substrate addition measured every 30 secs for 15 mins in presence of 100 pM of tryptase
observed_property: pIC50
Please report pIC50 as the negative decimal logarithm of the molar concentration, giving only the number.

Noted for NCc1cccc(C2CCN(C(=O)c3cccc(NC(=O)C(O)C4(O)CCC4)c3)CC2)c1 (stereo unspecified) : its pIC50 reads 6.77
